# MEASUREMENT_DESCRIPTION: MMV: MTT Cytotoxicity Assay Day 7 pi of Assay #10 (NO washout), U87-CD4-CCR5 cells, % cell death @ 5mM compound
# Assay type: toxicity, cell-based
# TEST_CONTEXT: human, u87-cd4-ccr5, 5000 µM
METRIC: % Cell Death
Give your answer as a number; write no unit.

Quick one: % Cell Death of CCCN(CCC)CCCNC(=O)c1cc2c(-c3ccc(OC)c(OC)c3)nn(C)c2s1 ?
100

Quick one: % Cell Death of CCOc1cc2c(cc1OCC)C(c1cc(C)c(O)c(C)c1)NCC2.Cl (configuration not stated) ?
-3

Quick one: % Cell Death of Cc1sc(NC(=O)c2ccco2)c(C(c2cccnc2)N2CCC(Cc3ccccc3)CC2)c1C (configuration not stated) ?
107

Quick one: % Cell Death of CC1=C(CC(=O)c2cccc([N+](=O)[O-])c2)C(=O)c2ccccc2C1=O ?
94

Quick one: % Cell Death of COc1ccc(CCN2C(=O)c3[nH]nc(-c4cc(Cl)c(C)cc4O)c3C2c2ccccc2F)cc1 (configuration not stated) ?
47

Quick one: % Cell Death of COc1ccc(-c2cc3c(SCC(=O)Nc4cc(C(F)(F)F)ccc4Cl)nccn3n2)cc1 ?
18

Quick one: % Cell Death of CCOC(=O)c1c(C)n(-c2ccc(Cl)cc2)c2ccc(OC(=O)C=Cc3ccccc3)cc12 ?
2

Quick one: % Cell Death of COc1ccc2nc(C)cc(Nc3ccc(Cl)cc3)c2c1 ?
121

Quick one: % Cell Death of CCOc1ccc2nc(C)cc(Nc3ccc(N(C)C)cc3)c2c1.Cl ?
23

----------
# MEASUREMENT_DESCRIPTION: MMV: MTT Cytotoxicity Assay Day 3 pi, U87-CD4-CXCR4 cells, % cell death @ 5mM compound
# Format: toxicity, cell-based
# TEST_CONTEXT: human, u87-cd4-cxcr4, 5000 µM
Classify by % Cell Death. Ranges: low: < 20; intermediate: ≥ 20 and < 40; high: ≥ 40

Cc1c(C)n(Cc2ccc(F)cc2)c2ccc(C(=O)NCc3ccco3)cc12	high

Which bin, given its % Cell Death, does CN(C)c1ccc(N=Cc2ccc(N3CCOCC3)cc2)cc1 occupy?
high

Which bin, given its % Cell Death, does CCN(CC)CCCNc1ccnc2cc3ccccc3cc12 occupy?
intermediate

Which bin, given its % Cell Death, does CCN1CCN(Cc2ccc(NC(=O)c3cc4ccc5cccnc5c4[nH]3)cc2)CC1 occupy?
intermediate

Which bin, given its % Cell Death, does OC1=C2C(=Nc3ccccc3SC2c2ccc(Br)cc2)c2ccccc21 (configuration not stated) occupy?
intermediate

Which bin, given its % Cell Death, does CCCC(c1nnnn1C1CCCCC1)N1CCN(C(=O)c2ccco2)CC1.Cl (configuration not stated) occupy?
low

Which bin, given its % Cell Death, does CN1CCN(c2ncnc3c2[nH]c2ccc(Cl)cc23)CC1 occupy?
intermediate

Which bin, given its % Cell Death, does Cc1cc(C)cc(Nc2cc(C)nc3nc(C(F)(F)F)nn23)c1 occupy?
intermediate

Which bin, given its % Cell Death, does CCOC(=O)c1cnc2c(C)cc(C)cc2c1Nc1ccc(OC)c(OC)c1 occupy?
intermediate

Which bin, given its % Cell Death, does CCN(CC)c1cc(C)c2cc(NC(=O)c3cccc(OC)c3)ccc2n1 occupy?
low

Which bin, given its % Cell Death, does CC1CC(C)CN(C(=O)c2ccc(Cl)cc2Cl)C1 (configuration not stated) occupy?
intermediate

Which bin, given its % Cell Death, does O=C(NCCCN1CCC(N2CCCCC2)CC1)C1=Cc2cc(Br)ccc2OC1 occupy?
low

Which bin, given its % Cell Death, does COc1cc(OC)cc(N2C(=O)N(Cc3ccc(C(C)(C)C)cc3)c3ccccc3S2(=O)=O)c1 occupy?
intermediate

Which bin, given its % Cell Death, does COc1cc(C(=O)Nc2nc3c(cc4c5c(cccc53)CC4)s2)cc(OC)c1OC occupy?
high

Which bin, given its % Cell Death, does CSC1=NC(=Nc2c(C)cccc2C)C2(CCC(C(C)(C)C)CC2)N1c1ccc(Cl)cc1 (configuration not stated) occupy?
low

Which bin, given its % Cell Death, does CCCCC(O)(c1ccc(Cl)cc1)C(CN1CCOCC1)c1ccc(Cl)cc1.Cl (configuration not stated) occupy?
intermediate

Which bin, given its % Cell Death, does COc1ccc(-c2c(C)nn3c(N)c(C#N)cnc23)cc1OC occupy?
high

Which bin, given its % Cell Death, does Cc1ccc(F)cc1NC(=O)c1cc(Cl)ccc1Nc1ccccc1 occupy?
intermediate
